Kindly state pEC50 for each of the entries shown.
molecular target: 5-HT2A (Homo sapiens); test: cell-based
Sequence (P28223 whole entry): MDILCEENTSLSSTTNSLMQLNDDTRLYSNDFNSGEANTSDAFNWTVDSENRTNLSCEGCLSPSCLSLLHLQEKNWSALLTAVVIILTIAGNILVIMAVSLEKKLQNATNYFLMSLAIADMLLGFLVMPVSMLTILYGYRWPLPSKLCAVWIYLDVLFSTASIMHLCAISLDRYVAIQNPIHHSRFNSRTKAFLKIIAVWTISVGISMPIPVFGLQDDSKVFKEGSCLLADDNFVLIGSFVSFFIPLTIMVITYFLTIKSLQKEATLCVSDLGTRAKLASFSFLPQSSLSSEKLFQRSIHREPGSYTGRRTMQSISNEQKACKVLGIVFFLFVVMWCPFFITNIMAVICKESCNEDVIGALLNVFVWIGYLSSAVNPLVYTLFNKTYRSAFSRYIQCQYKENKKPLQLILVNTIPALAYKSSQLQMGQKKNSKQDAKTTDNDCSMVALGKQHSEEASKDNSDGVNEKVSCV
# pEC50: negative log10 of molar concentration; output just the value

// recorded pEC50 for CCCN(CCc1c[nH]c2ccc(OC)c(F)c12)C(C)C : 6.60

// recorded pEC50 for CN(C)CCc1c[nH]c2ccc(O)c(F)c12 : 8.13

// recorded pEC50 for CCCN(CCc1c[nH]c2ccc(OC)cc12)C(C)C : 7.29

// recorded pEC50 for COc1ccc2[nH]cc(CCN(C(C)C)C(C)C)c2c1F : 6.47

// recorded pEC50 for CCN(C)CCc1c[nH]c2ccc(OC)c(F)c12 : 7.00

// recorded pEC50 for CSc1ccc2[nH]cc(CCN(C)C)c2c1 : 7.52

// recorded pEC50 for CSc1ccc2[nH]cc(CCN3CCCC3)c2c1 : 6.76

// recorded pEC50 for COc1ccc2[nH]cc(CCN(C)C(C)C)c2c1F : 6.82

// recorded pEC50 for CCN(CC)CCc1c[nH]c2ccc(OC)c(F)c12 : 6.17

// recorded pEC50 for COc1ccc2[nH]cc(CCN3CCCC3)c2c1F : 6.52

// recorded pEC50 for COc1ccc2[nH]cc(CCN(C)C)c2c1F : 7.06

// recorded pEC50 for CCCN(C)CCc1c[nH]c2ccc(OC)c(F)c12 : 6.94

// recorded pEC50 for CCN(CC)CCc1c[nH]c2ccc(OC)cc12 : 6.77

// recorded pEC50 for CCCN(CCC)CCc1c[nH]c2ccc(OC)cc12 : 7.70

// recorded pEC50 for COc1ccc2[nH]cc(CCN(C)C(C)C)c2c1 : 7.76

// recorded pEC50 for COc1ccc2[nH]cc(CCN3CC=CC3)c2c1 : 8.00

// recorded pEC50 for COc1ccc2[nH]cc(CCN3CC=CC3)c2c1F : 6.92

// recorded pEC50 for COc1ccc2[nH]cc(CCN3CCCC3)c2c1 : 7.09

// recorded pEC50 for CCCN(CC)CCc1c[nH]c2ccc(OC)c(F)c12 : 6.81

// recorded pEC50 for CCCN(CC)CCc1c[nH]c2ccc(OC)cc12 : 7.66

// recorded pEC50 for CCCN(C)CCc1c[nH]c2ccc(OC)cc12 : 7.55

// recorded pEC50 for CCN(C)CCc1c[nH]c2ccc(OC)cc12 : 7.42

// recorded pEC50 for C=CCN(C)CCc1c[nH]c2ccc(OC)c(F)c12 : 6.81

// recorded pEC50 for CCCN(CCC)CCc1c[nH]c2ccc(OC)c(F)c12 : 6.85

* * *

experiment: Mouse plasma protein binding; type: in vitro ADME; details: mouse, plasma, read-out: fu
Endpoint name: fraction unbound
In your answer, state the number alone without any accompanying words.

// recorded fraction unbound for COc1ccc2[nH]cc(CCN3CCCC3)c2c1F : 0.626

* * *

experiment: Mouse plasma protein binding; format: in vitro ADME; conditions: mouse, plasma, replicate R1, read-out: % Bound R1 (converted)
Endpoint name: fraction unbound
In your answer, state the number alone without any accompanying words.

// recorded fraction unbound for COc1ccc2[nH]cc(CCN3CCCC3)c2c1F [4-F, 5-MeO-PyrT] : 0.68

* * *

biological target: 5-HT2A (Homo sapiens); details: Gq BRET, 5-HT2A WT
Endpoint name: EC50 (nM)
Give your result in nM as a bare value.

// recorded EC50 for CN(C)CCc1c[nH]c2ccccc12 : 94.4

// recorded EC50 for COc1ccc2[nH]cc(CCN3CCCC3)c2c1F : 300
